target: H1 HA A/SI/3/06 (ELISA antigen) (influenza A virus A/SI/3/06 (H1)); experiment: ELISA
Reported values of K50 for individual entries

{"columns": ["binder", "units.symbol", "K50"],
 "data": [
  ["FE53 (antibody, V domains shown) VH: QVQLVQSGAEVKKPGSSVKVSCKASGVTSSNYPITWVRQAPGQGLEWMGGVLPLFGVTNYAQKFQGRVTISADKSTNTAYMELSSLRSEDTAVYYCARGKRPGYCSGGVCSSDYWGQGTLVTVSS VL: DIQMTQSPSSLSASVGDRVSITCQASQDISRYLNWYQQKPGEAPKLLIYDASNLETGVPSRFSGSGSGTDFTFTISSLQPEDIATYFCQQYGYLPLTFGPGTKVDSK", "µg/mL", 0.375],
  ["FE43 (antibody, V domains shown) VH: QVHLVQSGAEVKKPGSSVRLSCSASGGPFSGFAISWLRQAPGQGLEWLGGISAVFGTATYAQKFQGRVTITADQFTSTSHMDLSRLTYDDTAVYYCARSGGYLPQNNWIDPWGQGTLVIVSS VL: DIVMTQTPLSLSVTPGQPASISCKSSQSLLHSDGKTYLYWYLQKPGQSPQLLIYEVSNRFSGVPDRFSGSGSGTDFTLKISRVEAEDVGVYYCMQNILLPLTFGGGTKVEIK", "µg/mL", 0.206],
  ["FC6 (antibody, V domains shown) VH: QGQLVQSGAEVKKSGSSVKVSCKTSGGTFNSHAISWVRQAPGQGLEWIGGIIPMFGTTNYAQKLKGRIAITADQLPTTAYLELSSLRSEDTAVYYCARGQRYYYDRDGMDVWGQGTMVTVSS VL: EIVMTQTPLSLSVTPGQPASISCRSSQSLLHSDGKTYLYWYLQKPGQPPQLLISEVFNRFSGVPDRFSGSGSGTDFTLKISRVEAEDVGVYYCMQSLQLPLTFGGGTKVEIK", "µg/mL", 1.47],
  ["FB139 (antibody, V domains shown) VH: QVQLVQSGAEVKKAGSSVKVSCQSSGVTFSMYAVSWVRQAPGQGLEWMGGIIPLFGTTTYAQKFEGRLTITADTSTNMAYLELRSLRSEDTAVYFCARAGTTVTRFNWFDPWGQGTLVTVSS VL: EVVLTQSPGTLSLSPGQRATLSCRASQSVSSSYLAWYQQKPGQAPRLLIYDASNRATGIPDRFSGSGSGTDFTLTISRLEPEDFAVYYCQQYGSSPYTFGQGTKLEIK", "µg/mL", 1.38]
]}
